B1: library; numbered along this chain (parent)
chain: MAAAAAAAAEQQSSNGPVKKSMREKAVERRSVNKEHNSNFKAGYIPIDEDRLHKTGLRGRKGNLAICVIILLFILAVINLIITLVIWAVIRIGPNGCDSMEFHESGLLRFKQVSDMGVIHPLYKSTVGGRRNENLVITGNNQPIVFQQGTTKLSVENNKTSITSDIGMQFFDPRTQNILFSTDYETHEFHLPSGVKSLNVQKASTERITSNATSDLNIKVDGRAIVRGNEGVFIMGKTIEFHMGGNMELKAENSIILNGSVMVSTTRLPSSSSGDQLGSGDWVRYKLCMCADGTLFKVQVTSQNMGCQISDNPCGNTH

Variants of: B1
assay_overview: SGCB cell-surface expression functional score (HA stain, bin4 vs bin1, normalised to synonymous) (log10 ratio); higher = more cell-surface SGCB (functional)
Hi, to clarify the labels: t covers SGCB cell-surface expression functional score (log10) from 0.2 upward, f covers anything below 0.2.

Worked examples, 6 variants total:
S38R ... f
V220S ... t
A291T ... f
A26V ... t
D115W ... f
N157D ... f

Ask | Check this variant for SGCB cell-surface expression functional score (log10) at or above 0.2: H190C
Reply | f

Value source: the supplement of paper PMC10266784
